The values you see were collected from PubChem BioAssay (NCI).

Tested on: NCI-H522 lung
experiment.notes: NCI-60 one-dose screen, 48 h
condition.details: 10 µM unless noted
This is part of a sample that, as a whole, favours compounds with a hit. Of some 83,000 tested, about 20% had one in any assay. Calls of active or inactive are those of the source. The calls were made as follows: active = growth percent below 10; inactive = the rest.
Labels: active, inactive

compound	group
COC(=O)c1nc(-c2ccccc2)oc1S(=O)(=O)n1nc(C)cc1N	active
COc1ccc(-c2cc(C(=O)N3N=C(c4ccc(N)cc4)CC3c3ccc(OC)cc3)c3cc(OC)ccc3n2)cc1 (stereo not drawn)	inactive
CCC1S/C(=N\N=C(/C)c2ccc[nH]2)N(c2ccccc2)C1=O (stereo not drawn)	inactive
C#Cc1cccc(Nc2ncnc3ccc(NC(=O)c4ccccc4)cc23)c1	inactive
Cc1c(Cl)cccc1NC(=O)c1sc2nc3c(cc2c1N)CCCCCC3	active
O=C1NCc2ccc3c(-c4cccc(Cl)c4)c[nH]c3c21	active
COc1cc(/C=C/C(=O)c2ccc(NC(=O)CSc3nnc(-c4cc(OC)c(OC)c(OC)c4)n3-c3ccccc3)cc2)cc(OC)c1OC	active
CCCNc1nc(C)[nH]c(=O)c1S	inactive
O=C1CCC23OC(c4ccccc4N12)C(O)C(O)C3O (stereo not drawn)	inactive
CCO/C=N/S(=O)(=O)c1cc2c(cc1Cl)NC=NS2(=O)=O	inactive
N#CCNc1ccc(C(=O)O)cc1	inactive
CCCS(=O)(=O)Nc1ccc(F)c(C(=O)c2c[nH]c3ncc(-c4ccc(OCCCC5CCCCN5)nc4)cc23)c1F (stereo not drawn)	inactive
C=C(C)[C@@H]1CC[C@]2(C(=O)O)CC[C@]3(C)[C@H](CC[C@@H]4[C@@]5(C)C[C@@H](CC#Cc6ccc(Cl)cc6)C(=O)C(C)(C)[C@@H]5CC[C@]43C)[C@@H]12	inactive
COC(=O)CCc1cc(O)c2c(c1)[C@@H](C(=O)OC)[C@H](c1ccc(O)c(O)c1)O2	inactive
COc1cc(NC(=O)Nc2cnc(Nc3ccc(N4CCOCC4)cc3)nc2Oc2ccc(C(F)(F)F)cc2)cc(OC)c1	inactive
O=C(/C(=C/c1ccc([N+](=O)[O-])cc1)SCc1ccc(Cl)cc1)c1ccc(F)cc1	active
CCOC(=O)c1c(C)nc2c(c1N)/C(=C/c1ccc[nH]1)C(=O)N2Cc1ccc(C(F)(F)F)cc1	inactive
CN1CCN(CC#CCOC(=O)CNC(=O)[C@]23CCC(C)(C)C[C@H]2C2=CC[C@@H]4[C@@]5(C)CC[C@H](O)C(C)(C)[C@@H]5CC[C@@]4(C)[C@]2(C)CC3)CC1	inactive

###

// reported growth for each item listed
Tested on: T-47D breast
experiment.notes: NCI-60 one-dose screen, 48 h (100 = growth as untreated, 0 = no growth, -100 = all killed)
condition.details: 10 µM unless noted
Method: Growth inhibition of the T-47D human tumor cell line is measured as a screen for anti-cancer activity. Cells are grown in 96 well plates and exposed to the test compound for 48 hours. Compounds are tested at a single concentration, which is 10^-5 M for most compounds. The reported endpoint is percent growth (GI% or GIPRCNT), where numbers from 0 - 100% represent growth inhibition, and numbers from -100% - 0 represent cell death. For example, a value of 40 represents 60% growth inhibition. […]
The panel holds about 83,000 compounds, 20% with a hit somewhere; the sample as a whole holds those more often.

compound	system.name	growth [%]
COc1ccc(/C=C/C(=O)/C=C(/C=C/c2ccc(OC)c(OC)c2)OB(F)F)cc1OC	T-47D breast	35.5
CCCn1c(N)c(C(N)=O)sc1=S	T-47D breast	94.8
COc1cc(C2=NN(C=O)C(c3cccc(Nc4ccnc5cc(C(F)(F)F)ccc45)c3)C2)cc(OC)c1OC (stereo not given)	T-47D breast	43.6
CC1CCCN(CCCCCOc2ccc3oc4ccc(Cl)cc4c(=O)c3c2)C1 (stereo not given)	T-47D breast	64.8
COC(=O)/C=C/c1cc(OC(C)=O)c2c(c1)C(C(=O)OC)C(c1ccc(OC(C)=O)c(OC(C)=O)c1)O2 (stereo not given)	T-47D breast	49.3
